biological target: Fibroblast growth factor receptor 2 (Homo sapiens); conditions: Compound concentration 20.0 uM
Description: Thermal Shift Assay. Domain: start/stop: T457-E768
Measured ΔTm, listed per entry.
Please state the figure in °C; there is no need to write the unit.

The cases that follow already have their ΔTm on record.
Request: For the compound CCC[C@@H]1CNCc2c1[nH]c(=O)c(C#N)c2N1CCC2(CC1)CC2 , what ΔTm is on record?
Response: 0.64

Request: For the compound CC(C)C[C@@H](C=O)NC(=O)[C@@H](NS(=O)(=O)c1ccc(F)cc1)C(C)C , what ΔTm is on record?
Response: -0.07

Request: For the compound CC(C)Nc1cc(-c2c[nH]c(C(=O)N[C@H](CO)c3cccc(Cl)c3)c2)c(Cl)cn1 , what ΔTm is on record?
Response: 0.33

Request: For the compound CN(CC[C@@H](Oc1ccc(-c2ccccc2)cc1)c1ccc(F)cc1)CC(=O)O , what ΔTm is on record?
Response: 0.18

More entries:
Request: For the compound CN(C)NC(=O)CCC(=O)O , what ΔTm is on record?
Response: 0.18
